test system: E. coli TESEC Alr+ wild-type control; test: growth (OD600 after 10 h); higher = more growth (less inhibition); details: compound 0.1 mM; raw OD600 reference: median of DMSO wells 0.49, cell-free background 0.052
Where a name gives a salt, the structure may show the parent alone.
The molecules listed here are annotated with their growth.

{"columns": ["molecule", "assayed target", "growth"],
 "data": [
  ["COc1ccc(C(Cl)=C(c2ccc(OC)cc2)c2ccc(OC)cc2)cc1 [Chlorotrianisene]", "E. coli TESEC Alr+ wild-type control", 0.469],
  ["CCCCCNC(=N)N/N=C/c1c[nH]c2ccc(OC)cc12 [Tegaserod maleate]", "E. coli TESEC Alr+ wild-type control", 0.0476],
  ["Nc1ccn([C@@H]2O[C@H](CO)[C@@H](O)C2(F)F)c(=O)n1 [Gemcitabine]", "E. coli TESEC Alr+ wild-type control", 0.51],
  ["COC(=O)C1=C(C#N)NC(C)=C(C(=O)OC(C)C)C1c1cccc([N+](=O)[O-])c1 (centres undefined) [Nilvadipine]", "E. coli TESEC Alr+ wild-type control", 0.212]
]}
